Target: Free fatty acid receptor 1 (Homo sapiens, UniProt O14842)
Sequence (O14842 whole entry): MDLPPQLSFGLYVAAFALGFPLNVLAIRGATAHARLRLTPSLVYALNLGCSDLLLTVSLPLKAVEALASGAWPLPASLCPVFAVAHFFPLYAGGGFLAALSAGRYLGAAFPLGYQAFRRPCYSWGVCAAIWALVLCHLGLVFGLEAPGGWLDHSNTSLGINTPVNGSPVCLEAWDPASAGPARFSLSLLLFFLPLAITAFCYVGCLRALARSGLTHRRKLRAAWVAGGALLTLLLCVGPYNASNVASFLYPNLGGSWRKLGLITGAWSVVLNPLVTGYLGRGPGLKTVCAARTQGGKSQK
Experiment: Inhibition of human GPR40 expressed in CHO cells by SPA based binding assay
Form field: log10 of IC50 (one value per entry).
measurement kind: log10 of IC50 (log10 of the value in nM)

1) CC#CC(CC(=O)O)c1ccc(Oc2ccc(C(F)(F)F)cc2C)cc1 (racemic) | 1.60
2) CC#CC(CC(=O)O)c1ccc(O[C@@H]2CCc3ccccc32)cc1 (mixture of isomers) | 1.62
3) CC#CC(CC(=O)O)c1ccc(Oc2ncc(C(F)(F)F)cc2Cl)cc1 (racemic) | 1.48
4) CC#CC(CC(=O)O)c1ccc(Oc2ccc(C#N)cc2Cl)cc1 (racemic) | 1.36
5) CC#CC(CC(=O)O)c1ccc(Oc2nccnc2C#N)cc1 (racemic) | 3.40
6) CC#C[C@]1(c2ccc(Oc3ccc(C(F)(F)F)cc3Cl)cc2)C[C@@H]1C(=O)O (racemic) | 3.54
7) CC#CC(c1ccc(Oc2ccc(C(F)(F)F)cc2OC(F)F)cc1)C1OC(=O)NC1=O (racemic) | 1.28
8) CC#CC(CC(=O)O)c1ccc(Oc2ccc(C(F)(F)F)cc2OC(F)F)cc1F (racemic) | 1.69
9) CC#CC(c1ccc(OCc2ccccc2)cc1)C1OC(=O)NC1=O (racemic) | 3.64
10) CC#CC(CC(=O)O)c1ccc(Oc2ccc(C#N)c3ccccc23)cc1 (racemic) | 1.11
11) CC#CC(CC(=O)O)c1ccc(Oc2ccc(C#N)cc2Br)cc1 (racemic) | 1.56
12) CC#CC(CC(=O)O)c1ccc(OC2CCCC2)cc1 (racemic) | 2.49
13) CC#CC(CC(=O)O)c1ccc(Oc2ccc(C(F)(F)F)c3ccccc23)cc1 (racemic) | 2.32
14) CC#C[C@@H](c1ccc(Oc2ccc(C(F)(F)F)cc2OC(F)F)cc1)[C@H]1OC(=O)NC1=O (racemic) | 2.18
15) CC#CC(CC(=O)O)c1ccc(OC2CCCc3nc(-c4ccc(C)cc4)sc32)cc1 (mixture of isomers) | 1.36
16) CC#C[C@H](c1ccc(Oc2ccc(C(F)(F)F)cc2OC(F)F)cc1)[C@H]1OC(=O)NC1=O (racemic) | 3.38
17) CC#CC(CC(=O)O)c1ccc(Oc2nccc3ccccc23)cc1 (racemic) | 2.53
18) CC#CC(CC(=O)O)c1ccc(Oc2ncc(Br)cn2)cc1 (racemic) | 2.64
19) CC#CC(CC(=O)O)c1ccc(Oc2ccc(C(F)(F)F)cc2OC(F)F)cc1 (racemic) | 1.08
